Test system: T-47D breast
test-protocol: NCI tumour cell line growth inhibition, 48 h
parameter: TGI

Guide cases for TGI, answers given:
compound	TGI
COc1cc2c3c(n(CCCN=[N+]=[N-])c(=O)c2cc1OC)-c1ccccc1C3=O	> 100 µM
CSc1nc(-c2ccccc2)[nH]c(=O)n1	> 100 µM
CCCCCCCCCCC/C=C(/C(=O)CCCO[Si](C)(C)C(C)(C)C)C(=O)OC	> 100 µM
O=C1Nc2cccc(Cl)c2/C1=C\c1cccnc1	16.6 µM
CN(C)c1ccc(N=C2N=C(Nc3ccccc3)C(=Nc3ccccc3)S2)cc1	> 100 µM
Cc1csc2nc(-c3cccc([N+](=O)[O-])c3)c(/C=N/N=C(N)N)n12	8.06 µM

For COc1cc(C2c3cc4c(cc3OC(NNC(N)=S)C2C)OCO4)cc(OC)c1OC (configuration not stated) , what is its reported TGI?
> 31.6 µM

For CC(=O)OCC1OC(SC2=N/C(=C\c3ccc(Br)s3)C(=O)N2c2ccccc2)C(OC(C)=O)C(OC(C)=O)C1OC(C)=O (configuration not stated) , what is its reported TGI?
> 100 µM

For C[C@]12CC[C@H]3[C@@H](CC=C4C[C@@H](O)CC[C@@]43C)[C@@H]1C/C(=C\c1ccncc1)[C@@H]2O , what is its reported TGI?
42.5 µM

----------
Test system: CCRF-CEM leukemia
test-protocol: NCI tumour cell line growth inhibition, 48 h
# maps each entry to its TGI

compound	experimental-target	TGI
CCOC(=O)c1ccc(N2NC(=O)/C(=C/c3ccc([N+](=O)[O-])o3)C2=O)cc1	CCRF-CEM leukemia	> 61.6 µM
COc1ccc(OC2(c3cc(OC)ccc3OC)OC(=O)c3ccccc32)cc1 (centres undefined)	CCRF-CEM leukemia	> 100 µM
COCN1C(=O)[C@@H]2C[C@@H](O)CN2C(=O)c2ccccc21	CCRF-CEM leukemia	> 100 µM

For CC(=O)NC(CCCNC(=O)N(C)N=O)C(=O)NCc1ccccc1 (centres undefined) , what is its reported TGI?
> 100 µM

----------
Test system: EKVX NSCLC
test-protocol: NCI tumour cell line growth inhibition, 48 h
parameter: TGI

For Cc1cc(C)c2c(=O)n(CC(O)CN(Cc3ccccc3)CC(O)Cn3sc4nc(C)cc(C)c4c3=O)sc2n1 (configuration not stated) , what is its reported TGI?
44.5 µM

For O=S(Cc1ccccc1)c1ccccc1Cn1cccc1 (configuration not stated) , what is its reported TGI?
> 100 µM

----------
System: OVCAR-3 ovarian
test-protocol: NCI tumour cell line growth inhibition, 48 h
parameter: TGI

Guide cases for TGI, answers given:
compound	TGI
CN1CCN(C)C1c1ccc(C2N(C)CCN2C)cc1	> 100 µM
CCOC(=O)C1=C(C(=O)OCC)SC2(S1)C(C(=O)OCC)=C(C(=O)OCC)Sc1c2ssc1=O	3.16 µM
O=S(=O)(c1ccccc1)C1CC(c2nc3ccccc3[nH]2)=NO1 (centres undefined)	> 100 µM
CC1(O)CC2C(CC1SC1CC3C(CC1(C)O)C3(C)C)C2(C)C (centres undefined)	> 100 µM
COC(=O)CCc1n(Cc2ccc3ccccc3c2)c2ccccc2[n+]1Cc1ccc2ccccc2c1	2.15 µM

What reported TGI corresponds to CCC1C(NC(=O)OC)C(=O)N1[C@@H](C)c1ccccc1 (some centres undefined) on OVCAR-3 ovarian?
> 100 µM

What reported TGI corresponds to COc1cc2c3c(n(CCCN=[N+]=[N-])c(=O)c2cc1OC)-c1ccccc1C3=O on OVCAR-3 ovarian?
24.5 µM

What reported TGI corresponds to CCc1cccc(C(C)C)c1NC(=O)/C(=N\NC(N)=O)C(C(=O)OC)c1cnc2ccccc2n1 (centres undefined) on OVCAR-3 ovarian?
60.3 µM

What reported TGI corresponds to Cc1[nH]c2ncn3[nH]c(=S)nc3c2c1Cc1ccccc1 on OVCAR-3 ovarian?
> 100 µM

----------
System: NCI-H23 lung
test-protocol: NCI tumour cell line growth inhibition, 48 h; in the data active = GI50 below about 0.43 µM; inactive = the rest
Can you answer with just one of these options? true (1) for active, false (0) for inactive

compound	class
CCn1nc(C2CCN(C(=O)CCO)CC2)nc1-c1cnc(N)c(-c2nnc(C(C)(C)C)o2)n1	false (0)
CC[C@]12CN3CCc4c([nH]c5ccccc45)[C@@](C(=O)OC)(c4cc5c(cc4OC)N(C)[C@H]4[C@@](O)(C(=O)OC)[C@H](OC(C)=O)[C@]6(CC)C=CCN7CC[C@]54[C@@H]76)CC(C3)[C@H]1O2 (some centres not stated)	true (1)
Cc1cccc2c(=O)c3c(sc12)c(NCCCNCCO)nc1ccccc13	false (0)
CN1CCN(C)C1c1ccc(C2N(C)CCN2C)cc1	false (0)
CC(=O)O[C@@H]1c2c(c3c(=O)c4cccc(O)c4c(=O)c=3c2=[N+]=[N-])[C@H](OC(C)=O)[C@@H](OC(C)=O)[C@]1(C)O	true (1)
CC(C)CCN(CCC(C)C)CC(=O)Nc1ccc(S(=O)(=O)c2ccc(NC(=O)CN(CCC(C)C)CCC(C)C)cc2)cc1	false (0)

Continue with the next compound.
For this compound, state the assay outcome: COC(=O)[C@H](Cc1cn(C)cn1)NC(=O)[C@H](CC(C)C)NC(=O)Nc1cc(C(F)(F)F)cc(C(F)(F)F)c1
false (0)

----------
Test system: HCC-2998 colon
test-protocol: NCI tumour cell line growth inhibition, 48 h
parameter: GI50

Guide cases for GI50, answers given:
compound-string	experimental-target	GI50
ClCc1ccccc1Cn1cnc2nc(Cl)nc(Cl)c21	HCC-2998 colon	3.96 µM
CCc1cc2c(c(OCC(F)(F)F)c(C(=O)NC3CCN(C(=O)CO)CC3)n2C)c(=O)n1CC(=O)c1ccccc1	HCC-2998 colon	> 78 µM
c1cc(OCCN2CCCC2)ccc1CNc1ccc2nc(CCC3CCCCC3)[nH]c2c1	HCC-2998 colon	2.03 µM
COc1cccc(/C=N\NC(=O)c2ccncc2)c1O	HCC-2998 colon	4.73 µM
Cc1cc(-c2nc3sc(C)cn3c2/C=N/N=C(N)N)c(C)s1	HCC-2998 colon	1.73 µM

Proceed to the following item.
For COc1ccc(Sc2[nH]c(C=O)c3ccccc23)cc1 , what is its reported GI50?
5.44 µM

----------
Tested on: EKVX NSCLC
test-protocol: NCI tumour cell line growth inhibition, 48 h; in the data active = GI50 below about 0.43 µM; inactive = the rest
Can you answer with just one of these options? 1 for active, -1 for inactive

Past entries and their recorded results:
compound	class
CCc1cc2c(c(OCC(F)(F)F)c(C(=O)NC3CCN(C(=O)CO)CC3)n2C)c(=O)n1CC(=O)c1ccccc1	-1
COc1cccc(S(=O)(=O)NC2=NCCN2C(=S)SN2CCn3c2nsc3=S)c1	-1
CCOC(=O)c1c(NN2CCN(CC(F)(F)F)CC2)oc(/C=C2\C=Nc3ncccc32)c1O	-1
CC(=O)O[C@@H]1c2c(c3c(=O)c4cccc(O)c4c(=O)c=3c2=[N+]=[N-])[C@H](OC(C)=O)[C@@H](OC(C)=O)[C@]1(C)O	1
Cc1ncc(C(=O)Nc2ccc(CN3CCN(C)CC3)c(C(F)(F)F)c2)cc1C#Cc1cnc(N)c2ccc(C#N)cc12	1
Oc1ccc(N=Nc2ccc(Br)cc2)c(O)c1	-1
CC[C@]12CN3CCc4c([nH]c5ccccc45)[C@@](C(=O)OC)(c4cc5c(cc4OC)N(C)[C@H]4[C@@](O)(C(=O)OC)[C@H](OC(C)=O)[C@]6(CC)C=CCN7CC[C@]54[C@@H]76)CC(C3)[C@H]1O2 (some centres undefined)	1
O=C(Nc1ccc(Cl)c(C(F)(F)F)c1)Nc1ccc(-c2cccnc2)cc1N1CCC(CO)CC1	-1

Continue with the next compound.
For this compound, state the assay outcome: COc1cc2c3c(n(CCCN=[N+]=[N-])c(=O)c2cc1OC)-c1ccc([N+](=O)[O-])cc1C3=O
-1

----------
# maps each entry to its TGI
Test system: COLO 205 colon
test-protocol: NCI tumour cell line growth inhibition, 48 h

Guide cases for TGI, answers given:
molecule	TGI
COC(=O)C1(Cc2ccccc2)Cc2ccccc2C1O (stereo not drawn)	> 100 µM
Cc1[nH]c2ncn3[nH]c(=S)nc3c2c1Cc1ccccc1	> 100 µM

Proceed to the following item.
For CC1(C)CN(CC(=O)O)CC(Cc2ccc(OCC(=O)O)cc2)N(CC(=O)O)CC(C)(C)SS1 (stereo not drawn) , what is its reported TGI?
> 100 µM

----------
System: PC-3 prostate
test-protocol: NCI tumour cell line growth inhibition, 48 h
parameter: TGI (µM)
# value in µM; strip the unit string

Guide cases for TGI, answers given:
molecule	TGI / µM
Cc1ccc(S(=O)(=O)C2=Cc3ccccc3C2(O)c2ccccc2)cc1 (stereo not given)	92.6
O=S(=O)(CC(Cl)c1ccccc1)c1nc2ccccc2s1 (stereo not given)	29.9
COC(=O)c1c(O)ccc2c1c1c(n2CCc2ccc(OC)c(OC)c2)C(=O)c2ccccc2C1=O	35.9

Proceed to the following item.
What reported TGI corresponds to Cc1c(-c2ccccc2)c(C#N)c2nnn(-c3ccc(Cl)cc3)c(=O)n12 on PC-3 prostate?
50.9
